biological target: DNA repair nuclease/redox regulator APEX1 (Homo sapiens) (UniProt P27695); test: qHTS Assay for Inhibitors of the Human Apurinic/apyrimidinic Endonuclease 1 (APE1); conditions: recombinant APE1, TAMRA/BHQ-2 abasic DNA cleavage fluorescence; series mostly up to 65.8 µM; further: nearly all actives have a fitted effect of over 55% in size
Sequence (P27695 whole entry, looked up): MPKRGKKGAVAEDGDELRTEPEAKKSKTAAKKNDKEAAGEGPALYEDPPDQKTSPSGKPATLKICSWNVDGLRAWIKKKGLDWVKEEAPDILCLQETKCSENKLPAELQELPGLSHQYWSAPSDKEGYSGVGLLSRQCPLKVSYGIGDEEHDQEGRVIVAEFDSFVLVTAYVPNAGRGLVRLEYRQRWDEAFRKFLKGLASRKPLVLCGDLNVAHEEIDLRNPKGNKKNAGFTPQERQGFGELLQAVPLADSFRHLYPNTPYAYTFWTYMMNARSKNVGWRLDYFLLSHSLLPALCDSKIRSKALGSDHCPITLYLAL
In all, about 350,000 compounds went through this assay and about 1,200 (0.34%) were called active. Not shown: some 3% with an inconclusive outcome. The call rests on the fitted dose curve; in most records, active means well fitted inhibition curve with a large enough effect; inconclusive means small, poorly fitted or top-dose-only effect; inactive means no such curve, though single readings can be large or run the other way. Only a selection was taken, and actives are over-represented in it overall.
Classes used: active, inactive

> print(dat)
                                    compound                              study.target     label
 1                CC(C)(c1ccccc1)c1ccc(O)cc1  DNA repair nuclease/redox regulator APEX1 (Homo sapiens) (UniProt P27695)  inactive
 2  C[C@H]1C/C=C/[C@@H]2[C@@H]3O[C@]3(C)[C@@H](C)[C@H]3[C@H](Cc4ccccc4)NC(=O)[C@]32OC(=O)O/C=C/[C@](C)(O)C1=O  DNA repair nuclease/redox regulator APEX1 (Homo sapiens) (UniProt P27695)  inactive
 3  CC(=O)[O][Sn]([c]1ccccc1)([c]1ccccc1)[c]1ccccc1  DNA repair nuclease/redox regulator APEX1 (Homo sapiens) (UniProt P27695)  inactive
 4                                  CC(Cl)Cl  DNA repair nuclease/redox regulator APEX1 (Homo sapiens) (UniProt P27695)  inactive
 5      NCCCCC(N)C(=O)O (stereo unspecified)  DNA repair nuclease/redox regulator APEX1 (Homo sapiens) (UniProt P27695)  inactive
 6                                Clc1ccccc1  DNA repair nuclease/redox regulator APEX1 (Homo sapiens) (UniProt P27695)  inactive
 7  CN(C)C1C(=O)C(C(N)=O)=C(O)[C@@]2(O)C(=O)C3=C(O)c4c(O)cccc4[C@@](C)(O)C3C[C@@H]12 (stereo partly specified)  DNA repair nuclease/redox regulator APEX1 (Homo sapiens) (UniProt P27695)  inactive
 8  CC(C)COC(=O)n1c(=O)oc2ccc(S(=O)(=O)N3CCCCC3)cc21  DNA repair nuclease/redox regulator APEX1 (Homo sapiens) (UniProt P27695)  inactive
 9                       CCCCCCCCCCCCN=C(N)N  DNA repair nuclease/redox regulator APEX1 (Homo sapiens) (UniProt P27695)  inactive
10  O=c1cc(-c2ccc(O)cc2)oc2c([C@@H]3O[C@H](CO)[C@@H](O)[C@H](O)[C@H]3O)c(O)cc(O)c12  DNA repair nuclease/redox regulator APEX1 (Homo sapiens) (UniProt P27695)    active
11  CC[N+](C)(CC)CCC[n+]1c(-c2ccccc2)c2cc(N)ccc2c2ccc(N)cc21  DNA repair nuclease/redox regulator APEX1 (Homo sapiens) (UniProt P27695)    active

meta.source: PubChem BioAssay AID2517
